The measurements presented in this section are drawn from the supplement of paper PMC10567573.

B1: OAS1 (parent)
chain: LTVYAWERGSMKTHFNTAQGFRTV

variants of: B1; experiment: protein stability index of a GFP-peptide fusion (GPS, HEK-293T) (PSI 1-6); higher = more stable; details: c terminus: a fixed tail appended;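 further: lentivirally expressed fusions sorted by FACS into six bins by GFP to DsRed ratio, PSI derived from sequencing read proportions per bin multiplied by bin number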
Hi there, I'd appreciate the recorded protein stability index for every entry that follows.
Reply briefly: the number, and no unit.

Need protein stability index of T23M , thanks.
3.15

// query: Q19G
2.64

// query: T2E
1.91

// query: H14E
2.42

// query: L1T
2.09

// query: V3Y
2.7

// query: F15N
1.55
